Listing of log10 of Ki toward Beta-secretase 1 (Homo sapiens, UniProt P56817), each taken from a published source.
observable: log10 of Ki (log10 of the value in nM)

{"columns": ["compound", "tested_on", "reading"],
 "data": [
  ["C[C@@]1(c2sc(-c3cc(F)cc(-c4nnco4)c3)cc2Cl)Cc2ncncc2C(=N)N1", "Beta-secretase 1 (Homo sapiens, UniProt P56817)", 1.22],
  ["C[C@@]1(c2cc(NC(=O)c3ccc(C(F)(F)F)cn3)ccc2F)CS(=O)(=O)C2(CCCC2)C(=N)N1", "Beta-secretase 1 (Homo sapiens, UniProt P56817)", 0.34],
  ["CN1C(=N)N[C@@]2(c3cc(NC(=O)c4ccc(C(F)(F)F)cn4)ccc3F)COC[C@H]2S1(=O)=O", "Beta-secretase 1 (Homo sapiens, UniProt P56817)", 0.99],
  ["C[C@@]1(c2cc(NC(=O)c3ccc(Cl)cn3)ccc2F)CS(=O)(=O)C2(CCC2)C(=N)N1", "Beta-secretase 1 (Homo sapiens, UniProt P56817)", 0.90],
  ["Cc1noc(-c2cc(-c3cc(F)c([C@]4(C)CS(=O)(=O)N(C)C(=N)N4)s3)ccn2)n1", "Beta-secretase 1 (Homo sapiens, UniProt P56817)", 1.75],
  ["COc1nc(N2C[C@H]3C(=O)N(C)C(=N)N[C@@]3(c3ccc(F)cc3F)C2)nc(C(F)(F)F)c1F", "Beta-secretase 1 (Homo sapiens, UniProt P56817)", 1.51],
  ["COc1ccc(C(=O)Nc2ccc(F)c([C@]3(C)CS(=O)(=O)C4(CN(Cc5ccccc5)C4)C(=N)N3)c2)nc1", "Beta-secretase 1 (Homo sapiens, UniProt P56817)", 0.89],
  ["CN1C(=N)N[C@]2(C)c3cc(NC(=O)c4ccccn4)ccc3OCC[C@@H]2S1(=O)=O", "Beta-secretase 1 (Homo sapiens, UniProt P56817)", 1.54],
  ["CCc1nc(N2C[C@H]3C(=O)N(C)C(=N)N[C@@]3(c3ccc(Cl)s3)C2)nc(C2CC2)c1Cl", "Beta-secretase 1 (Homo sapiens, UniProt P56817)", 2.20],
  ["CN1C(=N)N[C@](C)(c2cc(NC(=S)c3ccc(Cl)cn3)ccc2F)CS1(=O)=O", "Beta-secretase 1 (Homo sapiens, UniProt P56817)", 0.96],
  ["C[C@@]1(c2sc(-c3cncnc3)cc2Cl)CS(=O)(=O)C2(CCCCC2)C(=N)N1", "Beta-secretase 1 (Homo sapiens, UniProt P56817)", 2.74],
  ["COc1ccc(C(=O)Nc2ccc(F)c([C@]3(C)CS(=O)(=O)C4(CCC4)C(=N)N3)c2)nc1", "Beta-secretase 1 (Homo sapiens, UniProt P56817)", 1.03],
  ["CC1(C)C(=N)N[C@@]2(COCc3ccc(NC(=O)c4ccc(Cl)cn4)cc32)CS1(=O)=O", "Beta-secretase 1 (Homo sapiens, UniProt P56817)", 1.36],
  ["CC1(S(C)(=O)=O)CCC(CF)(c2cc(NC(=O)c3ncc4c(c3F)OCC(F)(F)O4)ccc2F)N=C1N (stereo not drawn)", "Beta-secretase 1 (Homo sapiens, UniProt P56817)", -0.77],
  ["CC#CCOc1ccc(C(=O)Nc2ccc(F)c([C@]3(C)CS(=O)(=O)C4(CCN(C)CC4)C(=N)N3)c2)nc1", "Beta-secretase 1 (Homo sapiens, UniProt P56817)", 0.36],
  ["CN1C[C@@](C)(c2cc(NC(=O)c3cn4ccsc4n3)ccc2F)NC(=N)C(C)(C)S1(=O)=O", "Beta-secretase 1 (Homo sapiens, UniProt P56817)", 2.45],
  ["CN1C(=N)N[C@](C)(c2sc3c(-c4ccc(-c5ncco5)cc4)nccc3c2Cl)CS1(=O)=O", "Beta-secretase 1 (Homo sapiens, UniProt P56817)", 2.06],
  ["Cc1ncc2c(n1)C[C@@](C)(c1sc(-c3cc(F)cc(-c4nnco4)c3)cc1Cl)NC2=N", "Beta-secretase 1 (Homo sapiens, UniProt P56817)", 1.22],
  ["CN1C(=N)N[C@](C)(c2sc(-c3nnc(-c4ccc(-n5cnnn5)cc4)o3)cc2Cl)CS1(=O)=O", "Beta-secretase 1 (Homo sapiens, UniProt P56817)", 2.26],
  ["CN1C(=N)N[C@](C)(c2sc(-c3nnc(-c4ccccc4)o3)cc2Cl)CS1(=O)=O", "Beta-secretase 1 (Homo sapiens, UniProt P56817)", 2.03],
  ["CN1C(=N)N[C@](C)(c2cc(NC(=S)c3ccc(C(F)(F)F)cn3)cc(F)c2F)CS1(=O)=O", "Beta-secretase 1 (Homo sapiens, UniProt P56817)", 1.48],
  ["Cc1nc2cc(-c3nnc(-c4cc(Cl)c([C@]5(C)CS(=O)(=O)N(C)C(=N)N5)s4)o3)ccc2s1", "Beta-secretase 1 (Homo sapiens, UniProt P56817)", 2.63]
]}
